# assay.remarks: PSAC antagonists in infected red cells, primary screen, cell-based, P. falciparum Indochina, OD700, 2 h (AID 1155);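 also: lysis reports solute entry through the parasite surface anion channel PSAC; channel blockers reduce lysis of infected cells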
# measurement.parameters: P. falciparum Indochina infected erythrocytes, osmotic lysis OD700; higher = more signal, called active from +8 up or from −8 down
Assign yes (1) to entries whose z-score meets or exceeds 0.9; assign no (0) to the rest.

[
  {
    "compound": "COC(=O)C1=CC(CCCO)=CC(C2CC2)N(C)C=C1C(=O)OC (configuration not stated)",
    "category.label": "no (0)"
  }
]

Here's the next entry for you.
For this compound, is measured z-score 0.9 or higher? COc1cc2c(cc1OC)CN(C(=O)[C@@H]1[C@H]3C(=O)O[C@H](c4ccccc4)[C@H](c4ccccc4)N3[C@H](c3ccc(OCCO)cc3)[C@@]13C(=O)Nc1ccccc13)CC2
yes (1)

Measured values drawn from PubChem BioAssay for this set.
